Data credit: patent US20240352093A1

experiment: Transparency and clarity of hydrogels (tube images, light microscopy); format: physicochemical; details: SW480 spheroids Day 7 (FIG. 13)
No end group written: not given here.
readout-label: opacity of peptide/gelatin hybrid hydrogel in spheroid culture

>>> result("IEVEIRVK (IEVEIRVK-NH2) [IVK8, self-assembling peptide]")
"least opaque"
>>> result("IEIEIRIK (IEIEIRIK-NH2) [IIK8, self-assembling peptide]")
"least opaque"
>>> result("IELEIRLK (IELEIRLK-NH2) [ILK8, self-assembling peptide]")
"more opaque"
>>> result("IRIKIEIEIRIK (IRIKIEIEIRIK-NH2) [IIK12, self-assembling peptide]")
"more opaque"
